- System: Streptococcus pneumoniae
- Test name: Antibacterial activity against Streptococcus pneumoniae harboring erm(A) gene after overnight incubation by agar dilution method
- Type: functional
Attribute measured: log10 of MIC (log10 of the value in µg/mL)
// stored as log10 of MIC expressed in µg/mL

>  <Compound>
CC[C@H]1OC(=O)[C@@](C)(F)C(=O)[C@H](C)[C@@H](O[C@@H]2O[C@H](C)C[C@H](N(C)C)[C@H]2O)[C@](C)(OC)C[C@@H](C)C(=O)[C@H](C)[C@H]2N(CCCCn3cc(-c4cccc(N)c4)nn3)C(=O)O[C@]12C [SOLITHROMYCIN]

>  <Measurement target>
Streptococcus pneumoniae

>  <log10 of MIC>
-2.10

$$$$
>  <Compound>
CC[C@H]1OC(=O)[C@H](C)[C@@H](O[C@H]2C[C@@](C)(OC)[C@@H](O)[C@H](C)O2)[C@H](C)[C@@H](O[C@@H]2O[C@H](C)C[C@H](N(C)C)[C@H]2O)[C@](C)(O)C[C@@H](C)C(=O)[C@H](C)[C@@H](O)[C@]1(C)O [ERYTHROMYCIN]

>  <Measurement target>
Streptococcus pneumoniae

>  <log10 of MIC>
0.30

$$$$
>  <Compound>
CC1(C)S[C@@H]2[C@H](NC(=O)Cc3ccccc3)C(=O)N2[C@H]1C(=O)O [PENICILLIN G]

>  <Measurement target>
Streptococcus pneumoniae

>  <log10 of MIC>
-1.52

$$$$
>  <Compound>
CC[C@H]1OC(=O)[C@H](C)C(=O)[C@H](C)[C@@H](O[C@@H]2O[C@H](C)C[C@H](N(C)C)[C@H]2O)[C@](C)(OC)C[C@@H](C)C(=O)[C@H](C)[C@H]2N(CCCCn3cnc(-c4cccnc4)c3)C(=O)O[C@]12C [TELITHROMYCIN]

>  <Measurement target>
Streptococcus pneumoniae

>  <log10 of MIC>
-1.52

$$$$
>  <Compound>
CCC[C@@H]1C[C@@H](C(=O)N[C@@H]([C@H]2O[C@H](SC)[C@H](O)[C@@H](O)[C@H]2O)[C@H](C)Cl)N(C)C1 [CLINDAMYCIN]

>  <Measurement target>
Streptococcus pneumoniae

>  <log10 of MIC>
-0.90

$$$$

Qu. State its log10 of MIC on Streptococcus pneumoniae: CC[C@H]1OC(=O)[C@H](C)[C@@H](O[C@H]2C[C@@](C)(OC)[C@@H](O)[C@H](C)O2)[C@H](C)[C@@H](O[C@@H]2O[C@H](C)C[C@H](N(C)C)[C@H]2O)[C@](C)(O)C[C@@H](C)CN(C)[C@H](C)[C@@H](O)[C@]1(C)O [AZITHROMYCIN]
Ans. 0.30

Qu. Form: Entry = CC[C@H]1OC(=O)[C@H](C)[C@@H](O[C@H]2C[C@@](C)(OC)[C@@H](O)[C@H](C)O2)[C@H](C)[C@@H](O[C@@H]2O[C@H](C)C[C@H](N(C)C)[C@H]2O)[C@](C)(OC)C[C@@H](C)C(=O)[C@H](C)[C@@H](O)[C@]1(C)O [CLARITHROMYCIN] | System = Streptococcus pneumoniae | log10 of MIC = ____
Ans. -0.60

Qu. log10 of MIC of COc1c(N2C[C@@H]3CCCN[C@@H]3C2)c(F)cc2c(=O)c(C(=O)O)cn(C3CC3)c12 [MOXIFLOXACIN] on Streptococcus pneumoniae?
Ans. -0.60

* * *

- Tested on: Streptococcus pyogenes
- Test name: Antibacterial activity against macrolide-resistant Streptococcus pyogenes harboring erm(A) gene after overnight incubation by agar dilution method
- Type: functional
Listed below: MIC90 values for each entry.
Form entry: value (mg/L) — number only.

>  <Molecule>
CCC[C@@H]1C[C@@H](C(=O)N[C@@H]([C@H]2O[C@H](SC)[C@H](O)[C@@H](O)[C@H]2O)[C@H](C)Cl)N(C)C1 [CLINDAMYCIN]

>  <Reported result>
0.25

$$$$

Qu. Looking for the measured MIC90 of CC[C@H]1OC(=O)[C@H](C)C(=O)[C@H](C)[C@@H](O[C@@H]2O[C@H](C)C[C@H](N(C)C)[C@H]2O)[C@](C)(OC)C[C@@H](C)C(=O)[C@H](C)[C@H]2N(CCCCn3cnc(-c4cccnc4)c3)C(=O)O[C@]12C [TELITHROMYCIN] , can you help?
Ans. 0.125

Qu. Look at this molecule and give its reported MIC90. CC[C@H]1OC(=O)[C@@](C)(F)C(=O)[C@H](C)[C@@H](O[C@@H]2O[C@H](C)C[C@H](N(C)C)[C@H]2O)[C@](C)(OC)C[C@@H](C)C(=O)[C@H](C)[C@H]2N(CCCCn3cc(-c4cccc(N)c4)nn3)C(=O)O[C@]12C [SOLITHROMYCIN]
Ans. 0.125

Qu. Entry under review: COc1c(N2C[C@@H]3CCCN[C@@H]3C2)c(F)cc2c(=O)c(C(=O)O)cn(C3CC3)c12 [MOXIFLOXACIN] . Reported MIC90?
Ans. 0.25

Qu. Item under review: C[C@H]1COc2c(N3CCN(C)CC3)c(F)cc3c(=O)c(C(=O)O)cn1c23.C[C@H]1COc2c(N3CCN(C)CC3)c(F)cc3c(=O)c(C(=O)O)cn1c23.O [LEVOFLOXACIN] . Reported MIC90?
Ans. 1

Qu. Looking for the measured MIC90 of CC1(C)S[C@@H]2[C@H](NC(=O)Cc3ccccc3)C(=O)N2[C@H]1C(=O)O [PENICILLIN G] , can you help?
Ans. 0.015

* * *

Overview of recorded MIC for various molecules
- Test system: Streptococcus pneumoniae
- Test name: Antibacterial activity against macrolide-resistant Streptococcus pneumoniae 24 harboring erm(B) gene after 14 passages and 10 compound-free subculturing by retest method
- Assay type: functional
- Study conditions: Streptococcus pneumoniae, 24; read-out: MIC

>  <Smiles code>
CC[C@H]1OC(=O)[C@H](C)[C@@H](O[C@H]2C[C@@](C)(OC)[C@@H](O)[C@H](C)O2)[C@H](C)[C@@H](O[C@@H]2O[C@H](C)C[C@H](N(C)C)[C@H]2O)[C@](C)(OC)C[C@@H](C)C(=O)[C@H](C)[C@@H](O)[C@]1(C)O

>  <MIC>
> 64 µg/mL

$$$$

Qu. Find the recorded MIC belonging to CCC[C@@H]1C[C@@H](C(=O)N[C@@H]([C@H]2O[C@H](SC)[C@H](O)[C@@H](O)[C@H]2O)[C@H](C)Cl)N(C)C1 and report it.
Ans. > 64 µg/mL

Qu. Query: MIC; subject: CC[C@H]1OC(=O)[C@@](C)(F)C(=O)[C@H](C)[C@@H](O[C@@H]2O[C@H](C)C[C@H](N(C)C)[C@H]2O)[C@](C)(OC)C[C@@H](C)C(=O)[C@H](C)[C@H]2N(CCCCn3cc(-c4cccc(N)c4)nn3)C(=O)O[C@]12C
Ans. 0.06 µg/mL

Qu. Which MIC value is on record for CC[C@H]1OC(=O)[C@H](C)[C@@H](O[C@H]2C[C@@](C)(OC)[C@@H](O)[C@H](C)O2)[C@H](C)[C@@H](O[C@@H]2O[C@H](C)C[C@H](N(C)C)[C@H]2O)[C@](C)(O)C[C@@H](C)CN(C)[C@H](C)[C@@H](O)[C@]1(C)O ?
Ans. > 64 µg/mL

* * *

- System: Streptococcus pyogenes
- Test name: Antibacterial activity against macrolide-resistant Streptococcus pyogenes 2011 harboring mef(A) gene after overnight incubation by agar dilution method
Attribute measured: MIC (µg/mL)
Number only, in µg/mL; omit the unit.

Some entries whose results are on file:
>  <Compound>
CCC[C@@H]1C[C@@H](C(=O)N[C@@H]([C@H]2O[C@H](SC)[C@H](O)[C@@H](O)[C@H]2O)[C@H](C)Cl)N(C)C1 [CLINDAMYCIN]

>  <Result units>
µg/mL

>  <MIC>
0.06

$$$$
>  <Compound>
CC[C@H]1OC(=O)[C@H](C)[C@@H](O[C@H]2C[C@@](C)(OC)[C@@H](O)[C@H](C)O2)[C@H](C)[C@@H](O[C@@H]2O[C@H](C)C[C@H](N(C)C)[C@H]2O)[C@](C)(O)C[C@@H](C)CN(C)[C@H](C)[C@@H](O)[C@]1(C)O [AZITHROMYCIN]

>  <Result units>
µg/mL

>  <MIC>
4

$$$$
>  <Compound>
CC[C@H]1OC(=O)[C@H](C)C(=O)[C@H](C)[C@@H](O[C@@H]2O[C@H](C)C[C@H](N(C)C)[C@H]2O)[C@](C)(OC)C[C@@H](C)C(=O)[C@H](C)[C@H]2N(CCCCn3cnc(-c4cccnc4)c3)C(=O)O[C@]12C [TELITHROMYCIN]

>  <Result units>
µg/mL

>  <MIC>
0.5

$$$$

Kindly consider the entry below.
Qu. Consider the compound CC[C@H]1OC(=O)[C@H](C)[C@@H](O[C@H]2C[C@@](C)(OC)[C@@H](O)[C@H](C)O2)[C@H](C)[C@@H](O[C@@H]2O[C@H](C)C[C@H](N(C)C)[C@H]2O)[C@](C)(OC)C[C@@H](C)C(=O)[C@H](C)[C@@H](O)[C@]1(C)O [CLARITHROMYCIN] and give its measured MIC.
Ans. 4
